Provide the recorded Ki for the entries that follow.
# Study system: Sodium-dependent noradrenaline transporter (Homo sapiens)
# Sequence (P23975 whole entry): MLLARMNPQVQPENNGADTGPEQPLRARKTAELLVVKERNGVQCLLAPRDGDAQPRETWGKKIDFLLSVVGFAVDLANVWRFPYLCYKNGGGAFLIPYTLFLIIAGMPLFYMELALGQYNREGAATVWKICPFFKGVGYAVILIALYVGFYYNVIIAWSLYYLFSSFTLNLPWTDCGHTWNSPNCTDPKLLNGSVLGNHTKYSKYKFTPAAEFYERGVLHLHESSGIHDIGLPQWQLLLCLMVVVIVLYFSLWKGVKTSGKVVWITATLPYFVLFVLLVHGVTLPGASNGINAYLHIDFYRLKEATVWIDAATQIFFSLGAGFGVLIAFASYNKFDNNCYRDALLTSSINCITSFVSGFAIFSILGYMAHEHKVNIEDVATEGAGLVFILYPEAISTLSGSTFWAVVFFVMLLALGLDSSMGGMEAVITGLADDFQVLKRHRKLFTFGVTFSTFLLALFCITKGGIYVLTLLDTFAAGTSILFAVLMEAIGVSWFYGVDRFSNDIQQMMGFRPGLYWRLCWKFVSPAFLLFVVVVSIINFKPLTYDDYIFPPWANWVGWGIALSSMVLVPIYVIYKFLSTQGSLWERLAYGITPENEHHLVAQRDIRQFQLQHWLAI

Problem: # get_value(readout='Ki', item= Cc1ccc(Sc2ccccc2CNCCCF)c(N)c1 )
Solution: 4.33 µM

Problem: What about CN(C)Cc1ccccc1Sc1ccc(CO)cc1N ?
Solution: 0.787 µM

Problem: What about C=CCNCc1ccccc1Sc1ccc(C)cc1N ?
Solution: 3.82 µM

Problem: What about Cc1cc(N)c(Sc2ccccc2CN(C)C)cc1F ?
Solution: 7.04 µM

Problem: What about CCNCc1ccccc1Sc1ccc(C)cc1N ?
Solution: 7.55 µM

Problem: What about CCCNCc1ccccc1Sc1ccc(C)cc1N ?
Solution: > 10 µM

Problem: What about Cc1ccc(Sc2ccccc2CNCCF)c(N)c1 ?
Solution: 3.91 µM

All values here come from ChEMBL document CHEMBL1145212.
